Assay: soluble on expression in E. coli; label from the status in PepcDB or PDB records
reported-metric: soluble on expression in E. coli

sequence_data=MKLAKLIPKRFFIRSKDRSTVSKSPTAFSFGSASSSSGQDCKNSGGDGGGGSVTPTSILPEVPSPYSYVEILQAFKLIDRDNDGAVSRHDLESLLSRLGPDPLTEEEINVMLKEVDCDGDGTIRLEELASRVVSLDPARDSTELKETFEFFDADRDGLISADELLRVFSTIGDERCTLDDCKRMIADVDEDGDGFVCFTEFSRMMDLQR reported_metric="soluble on expression in E. coli" reported_result=soluble
sequence_data=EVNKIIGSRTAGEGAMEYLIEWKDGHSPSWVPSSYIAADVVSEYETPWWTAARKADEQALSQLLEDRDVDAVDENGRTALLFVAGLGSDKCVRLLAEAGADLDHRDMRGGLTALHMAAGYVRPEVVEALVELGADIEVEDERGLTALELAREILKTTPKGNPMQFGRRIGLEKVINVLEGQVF reported_metric="soluble on expression in E. coli" reported_result=soluble
sequence_data=METIFEDEETMMAAEQSSSGISANSNSNCSASKTEKASKKPKNAIPKVKNSGIHKKPAKSDFDEFLSSMKSRLSQATSMKSNKEQLKMLEETQKLIFDRITKSADARDMEHLEKQMNKL reported_metric="soluble on expression in E. coli" reported_result=soluble
